Just for reference, patent US10344026B2 is where these values come from.

- experimental.target: wild type K-Ras (Homo sapiens)
- Construct: expressed in transfected cells; host or cells: 293H cells
- Sequence (P01116 whole entry): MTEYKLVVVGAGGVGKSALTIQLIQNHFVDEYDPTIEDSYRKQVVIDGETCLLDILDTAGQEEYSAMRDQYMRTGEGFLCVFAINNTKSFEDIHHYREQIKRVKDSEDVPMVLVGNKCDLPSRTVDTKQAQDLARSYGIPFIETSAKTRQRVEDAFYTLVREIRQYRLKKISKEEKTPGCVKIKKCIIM
- procedure.summary: G-LISA Ras activation, 293H cells transfected with Ras wild-type, EGF stimulated
- Format: cell-based
- condition.details: compound 1 hour, then 100 ng/ml EGF 2 minutes
parameter.measured: IC50 (µM)
Numbers only; they are read as µM.

Record excerpt, results attached:
| molecule | parameter.measured | readout.unit | quantitative.result |
| --- | --- | --- | --- |
| CCn1nc(C)c(C(=O)Nc2nc(-c3ccc4c(c3)CCC(=O)N4CCOC)cs2)c1C [Compound 119] | IC50 | µM | 5.4 |
| Cc1nn(C)c(C)c1C(=O)Nc1nc(-c2ccc3c(c2)CCC(=O)N3Cc2cccnc2)cs1 [Compound 113] | IC50 | µM | 9.6 |
| Cc1nc(C)c(C(=O)Nc2nc(-c3ccc4c(c3)CCC(=O)N4Cc3ccccc3)cs2)o1 [Compound 60] | IC50 | µM | 8.6 |
| CCn1nc(C)c(C(=O)Nc2nc(-c3ccc4c(c3)CCC(=O)N4)cs2)c1C [Compound 41] | IC50 | µM | 7.5 |
| Cc1nc(C)c(C(=O)Nc2nc(-c3ccc4c(c3)CCC(=O)N4)cs2)s1 [Compound 1] | IC50 | µM | 3.8 |

**Query** So what does the record say about IC50 for Cc1nn(-c2ccccc2)c(C)c1C(=O)Nc1nc(-c2ccc3c(c2)CCC(=O)N3)cs1 [Compound 53] ?
**Result** 7.7

**Query** So what does the record say about IC50 for CCc1nc(C)c(C(=O)Nc2nc(-c3ccc4c(c3)CCC(=O)N4Cc3ccccc3)cs2)o1 [Compound 59] ?
**Result** 6.5

**Query** So what does the record say about IC50 for Cc1nc(C2CC2)oc1C(=O)Nc1nc(-c2ccc3c(c2)CCC(=O)N3Cc2ccccc2)cs1 [Compound 58] ?
**Result** 20.4
